# assay.procedure: Half life in mouse at 10 mg/kg, po
# Format: ADME, organism-based
# Design: dose 10 mg/kg, route oral
# assay.setup: in vivo
measurement.kind: half-life (h)
Output spec: scalar in h, unitless text.

Observe how each entry below is paired with its result.
INSERT INTO measurements (chemical_string, measurement_kind, recorded_number) VALUES
  ('CCc1nc2ccc(Cl)cn2c1C(=O)NCc1ccc(N2CCC(c3ccc(OC(F)(F)F)cc3)CC2)cc1', 'half-life', 23.4),
  ('CCc1nc2cc(Cl)ccn2c1C(=O)NCc1ccc(N2CCN(c3ccc(F)cc3)CC2)cc1', 'half-life', 9.4);

Attention now shifts to the item below.
Tell me its half-life given "CCc1nc2cc(Cl)ccn2c1C(=O)NCc1ccc(N2CCC(c3ccc(OC(F)(F)F)cc3)CC2)cc1" as the entry. 21.3

---

# assay.procedure: Volume of distribution at steady state in mouse at 2 mg/kg, iv
# Type: ADME, organism-based
# Set-up: dose 2 mg/kg, route intravenous
# assay.setup: in vivo, read-out: Vdss
measurement.kind: Vd (L/kg)
Respond with the bare value in L/kg.

INSERT INTO assay_data (chemical_string, recorded_number) VALUES
  ('CCc1nc2cc(Cl)ccn2c1C(=O)NCc1ccc(N2CCN(c3ccc(F)cc3)CC2)cc1', 0.877),
  ('CCc1nc2ccc(Cl)cn2c1C(=O)NCc1ccc(N2CCC(c3ccc(OC(F)(F)F)cc3)CC2)cc1', 5.27);

Input "CCc1nc2cc(Cl)ccn2c1C(=O)NCc1ccc(N2CCC(c3ccc(OC(F)(F)F)cc3)CC2)cc1" , output reported Vd. 14.3

---

Property: IC50; scope: individual molecules
# target.or.test.system: Cytochrome P450 1A2 (Homo sapiens, UniProt P05177)
# assay.procedure: Inhibition of recombinant CYP1A2 (unknown origin) by LC/MS/MS analysis

INSERT INTO assay_data (chemical_string, target_or_test_system, result) VALUES
  ('CCc1nc2cc(Cl)ccn2c1C(=O)NCc1ccc(N2CCN(c3ccc(F)cc3)CC2)cc1', 'Cytochrome P450 1A2 (Homo sapiens, UniProt P05177)', '> 40 µM'),
  ('CCc1nc2ccc(Cl)cn2c1C(=O)NCc1ccc(N2CCN(c3ccc(OC(F)(F)F)cc3)CC2)cc1', 'Cytochrome P450 1A2 (Homo sapiens, UniProt P05177)', '> 40 µM'),
  ('CCc1nc2ccc(Cl)cn2c1C(=O)NCc1ccc(N2CCN(c3ccc(F)cc3)CC2)cc1', 'Cytochrome P450 1A2 (Homo sapiens, UniProt P05177)', '> 40 µM'),
  ('CCc1nc2ccc(Cl)cn2c1C(=O)NCc1ccc(N2CCC(c3ccc(OC(F)(F)F)cc3)CC2)cc1', 'Cytochrome P450 1A2 (Homo sapiens, UniProt P05177)', '> 100 µM');

Next:
Consider the molecule "CCc1nc2ccc(Cl)cn2c1C(=O)NCc1ccc(N2CCC(c3ccc(Cl)cc3)CC2)cc1" and give its recorded IC50. > 40 µM

---

# assay.procedure: Half life in human liver microsomes
# Format: ADME
measurement.kind: half-life

Some solved entries appear below for comparison.
INSERT INTO measurements (compound, result) VALUES
  ('CCc1nc2cc(Cl)ccn2c1C(=O)NCc1ccc(-n2cc3c(c2)CCCC3)cc1', '27.3 min'),
  ('CCc1nc2ccc(Cl)cn2c1C(=O)NCc1ccc(N2CCC(c3ccc(OC(F)(F)F)cc3)CC2)cc1 [TELACEBEC]', '> 120 min');

Okay, next one:
Report half-life for "CCc1nc2cc(Cl)ccn2c1C(=O)NCc1ccc(N2CCC(C(F)(F)F)CC2)cc1" 6.5 min

---

pIC50 values, listed per item
# target.or.test.system: Cytochrome P450 1A2 (Homo sapiens, UniProt P05177)
# Sequence (P05177 whole entry): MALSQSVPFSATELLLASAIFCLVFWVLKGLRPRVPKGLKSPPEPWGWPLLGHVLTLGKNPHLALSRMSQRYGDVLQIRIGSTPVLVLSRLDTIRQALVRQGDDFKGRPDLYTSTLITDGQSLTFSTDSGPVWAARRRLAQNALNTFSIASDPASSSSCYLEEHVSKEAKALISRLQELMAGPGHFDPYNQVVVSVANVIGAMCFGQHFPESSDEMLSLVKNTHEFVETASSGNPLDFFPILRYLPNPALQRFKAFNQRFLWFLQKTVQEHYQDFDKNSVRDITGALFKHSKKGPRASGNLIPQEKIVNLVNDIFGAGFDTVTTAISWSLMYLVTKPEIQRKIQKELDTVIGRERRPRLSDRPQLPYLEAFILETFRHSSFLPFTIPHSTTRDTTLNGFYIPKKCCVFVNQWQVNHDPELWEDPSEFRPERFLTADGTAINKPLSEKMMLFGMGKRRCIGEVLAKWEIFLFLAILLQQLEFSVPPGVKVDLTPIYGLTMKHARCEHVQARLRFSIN
# assay.procedure: Inhibition of recombinant CYP1A2 (unknown origin) by LC/MS/MS analysis
pIC50: −log10 of the molar value.

State, in one line, measured pIC50 of "CCc1nc2cc(Cl)ccn2c1C(=O)NCc1ccc(N2CCC(c3ccc(Cl)cc3)CC2)cc1" < 4.40

Note down pIC50 recorded for "CCc1nc2ccc(Cl)cn2c1C(=O)NCc1ccc(N2CCC(c3ccc(F)cc3)CC2)cc1" < 4.40

Return pIC50 (reported value) for this compound: "CCc1nc2cc(Cl)ccn2c1C(=O)NCc1ccc(N2CCN(c3ccc(OC(F)(F)F)cc3)CC2)cc1" < 4.40

Identify measured pIC50 associated with "CCc1nc2cc(Cl)ccn2c1C(=O)NCc1ccc(N2CCC(c3ccc(OC(F)(F)F)cc3)CC2)cc1" < 4.00

// Input: "CCc1nc2cc(Cl)ccn2c1C(=O)NCc1ccc(N2CCC(c3ccc(F)cc3)CC2)cc1" . Output its pIC50 only. < 4.40

---

# assay.procedure: Half life in mouse liver microsomes
# Assay type: ADME
Catalogue of half-life values
Express the result in h but write the number alone.

Below, each entry is followed by its recorded half-life result.
INSERT INTO assay_data (chemical_string, measurement_kind, unit_annotation, recorded_number) VALUES
  ('CCc1nc2ccc(Cl)cn2c1C(=O)NCc1ccc(N2CCC(c3ccc(Cl)cc3)CC2)cc1', 'half-life', 'h', 1.93),
  ('CCc1nc2cc(Cl)ccn2c1C(=O)NCc1ccc(N2CCN(C(C)C)CC2)cc1', 'half-life', 'h', 0.148),
  ('CCc1nc2cc(Cl)ccn2c1C(=O)NCc1ccc(-n2cc3c(c2)CCCC3)cc1', 'half-life', 'h', 1.04);

Next molecule, please.
Quickly give me recorded half-life for "CCc1nc2cc(Cl)ccn2c1C(=O)NCc1ccc(N2CCC(c3ccc(Cl)cc3)CC2)cc1" 1.87

---

# target.or.test.system: Cytochrome P450 2C9 (Homo sapiens, UniProt P11712)
# Sequence (P11712 whole entry): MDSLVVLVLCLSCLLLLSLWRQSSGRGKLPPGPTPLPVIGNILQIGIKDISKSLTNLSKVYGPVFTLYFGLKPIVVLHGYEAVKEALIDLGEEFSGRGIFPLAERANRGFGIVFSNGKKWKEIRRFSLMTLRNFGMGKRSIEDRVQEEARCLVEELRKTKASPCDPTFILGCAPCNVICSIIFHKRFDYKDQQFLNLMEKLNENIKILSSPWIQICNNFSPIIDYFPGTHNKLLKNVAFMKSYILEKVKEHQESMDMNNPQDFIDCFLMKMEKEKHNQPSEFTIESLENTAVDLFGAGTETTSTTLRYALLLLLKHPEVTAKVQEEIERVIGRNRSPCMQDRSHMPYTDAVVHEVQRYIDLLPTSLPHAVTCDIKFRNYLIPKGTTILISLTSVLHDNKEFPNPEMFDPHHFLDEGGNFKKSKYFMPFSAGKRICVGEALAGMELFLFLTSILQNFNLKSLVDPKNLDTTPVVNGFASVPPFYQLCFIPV
# assay.procedure: Inhibition of recombinant CYP2C9 (unknown origin) by LC/MS/MS analysis
Listing: IC50 of selected compounds
Give just the numeric value; nM need not be written.

INSERT INTO assay_data (chemical_string, unit_annotation, recorded_number) VALUES
  ('CCc1nc2ccc(Cl)cn2c1C(=O)NCc1ccc(N2CCN(c3ccc(OC(F)(F)F)cc3)CC2)cc1', 'nM', 570),
  ('CCc1nc2ccc(Cl)cn2c1C(=O)NCc1ccc(N2CCC(c3ccc(Cl)cc3)CC2)cc1', 'nM', 260),
  ('CCc1nc2cc(Cl)ccn2c1C(=O)NCc1ccc(N2CCC(c3ccc(F)cc3)CC2)cc1', 'nM', 500),
  ('CCc1nc2cc(Cl)ccn2c1C(=O)NCc1ccc(N2CCC(c3ccc(Cl)cc3)CC2)cc1', 'nM', 190),
  ('CCc1nc2cc(Cl)ccn2c1C(=O)NCc1ccc(N2CCC(c3ccc(OC(F)(F)F)cc3)CC2)cc1', 'nM', 140),
  ('CCc1nc2cc(Cl)ccn2c1C(=O)NCc1ccc(N2CCN(c3ccc(OC(F)(F)F)cc3)CC2)cc1', 'nM', 170);

Okay, next one:
Supply recorded IC50 for "CCc1nc2ccc(Cl)cn2c1C(=O)NCc1ccc(N2CCN(c3ccc(F)cc3)CC2)cc1" here. 1330

---

# target.or.test.system: Cytochrome P450 2D6 (Homo sapiens, UniProt P10635)
# Sequence (P10635 whole entry): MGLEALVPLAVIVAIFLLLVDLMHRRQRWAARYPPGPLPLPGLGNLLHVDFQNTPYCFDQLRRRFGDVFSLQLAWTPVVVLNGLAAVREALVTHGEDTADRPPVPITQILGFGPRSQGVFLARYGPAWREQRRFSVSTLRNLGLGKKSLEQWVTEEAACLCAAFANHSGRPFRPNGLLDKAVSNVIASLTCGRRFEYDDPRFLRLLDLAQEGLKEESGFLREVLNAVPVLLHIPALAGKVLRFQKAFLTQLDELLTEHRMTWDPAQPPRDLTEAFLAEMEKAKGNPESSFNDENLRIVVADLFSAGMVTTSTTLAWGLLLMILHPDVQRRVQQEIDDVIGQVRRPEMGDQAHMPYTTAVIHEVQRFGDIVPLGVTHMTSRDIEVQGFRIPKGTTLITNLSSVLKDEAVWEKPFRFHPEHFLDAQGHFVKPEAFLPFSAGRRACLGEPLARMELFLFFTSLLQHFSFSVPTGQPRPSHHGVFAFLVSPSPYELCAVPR
# assay.procedure: Inhibition of recombinant CYP2D6 (unknown origin) by LC/MS/MS analysis
Each item that follows carries a reported IC50.

Here's what some known entries look like.
INSERT INTO results (chemical_string, result) VALUES
  ('CCc1nc2cc(Cl)ccn2c1C(=O)NCc1ccc(N2CCC(c3ccc(Cl)cc3)CC2)cc1', '> 40 µM'),
  ('CCc1nc2ccc(Cl)cn2c1C(=O)NCc1ccc(N2CCC(c3ccc(Cl)cc3)CC2)cc1', '> 40 µM'),
  ('CCc1nc2ccc(Cl)cn2c1C(=O)NCc1ccc(N2CCN(c3ccc(F)cc3)CC2)cc1', '> 40 µM'),
  ('CCc1nc2ccc(Cl)cn2c1C(=O)NCc1ccc(N2CCC(c3ccc(F)cc3)CC2)cc1', '> 40 µM'),
  ('CCc1nc2cc(Cl)ccn2c1C(=O)NCc1ccc(N2CCN(c3ccc(OC(F)(F)F)cc3)CC2)cc1', '> 40 µM');

Tell me measured IC50 for "CCc1nc2ccc(Cl)cn2c1C(=O)NCc1ccc(N2CCC(c3ccc(OC(F)(F)F)cc3)CC2)cc1" please. > 100 µM

Give IC50 for "CCc1nc2cc(Cl)ccn2c1C(=O)NCc1ccc(N2CCN(c3ccc(F)cc3)CC2)cc1" > 40 µM

Supply IC50 value. Item: "CCc1nc2cc(Cl)ccn2c1C(=O)NCc1ccc(N2CCC(c3ccc(OC(F)(F)F)cc3)CC2)cc1" > 100 µM

State its IC50 for this molecule: "CCc1nc2ccc(Cl)cn2c1C(=O)NCc1ccc(N2CCN(c3ccc(OC(F)(F)F)cc3)CC2)cc1" > 40 µM

Let me know recorded IC50 for "CCc1nc2cc(Cl)ccn2c1C(=O)NCc1ccc(N2CCC(c3ccc(F)cc3)CC2)cc1" , thanks. > 40 µM

Cited source: ChEMBL document CHEMBL3297708
